// provenance: patent US10947242B2

- target_desc: Human recombinant PDE10A (hPDE10A) (Homo sapiens)
- Construct: His tag (inferred from metal chelate purification); made in house; host or cells: Sf9 insect cells (baculovirus)
- Sequence (Q9Y233 267-1055): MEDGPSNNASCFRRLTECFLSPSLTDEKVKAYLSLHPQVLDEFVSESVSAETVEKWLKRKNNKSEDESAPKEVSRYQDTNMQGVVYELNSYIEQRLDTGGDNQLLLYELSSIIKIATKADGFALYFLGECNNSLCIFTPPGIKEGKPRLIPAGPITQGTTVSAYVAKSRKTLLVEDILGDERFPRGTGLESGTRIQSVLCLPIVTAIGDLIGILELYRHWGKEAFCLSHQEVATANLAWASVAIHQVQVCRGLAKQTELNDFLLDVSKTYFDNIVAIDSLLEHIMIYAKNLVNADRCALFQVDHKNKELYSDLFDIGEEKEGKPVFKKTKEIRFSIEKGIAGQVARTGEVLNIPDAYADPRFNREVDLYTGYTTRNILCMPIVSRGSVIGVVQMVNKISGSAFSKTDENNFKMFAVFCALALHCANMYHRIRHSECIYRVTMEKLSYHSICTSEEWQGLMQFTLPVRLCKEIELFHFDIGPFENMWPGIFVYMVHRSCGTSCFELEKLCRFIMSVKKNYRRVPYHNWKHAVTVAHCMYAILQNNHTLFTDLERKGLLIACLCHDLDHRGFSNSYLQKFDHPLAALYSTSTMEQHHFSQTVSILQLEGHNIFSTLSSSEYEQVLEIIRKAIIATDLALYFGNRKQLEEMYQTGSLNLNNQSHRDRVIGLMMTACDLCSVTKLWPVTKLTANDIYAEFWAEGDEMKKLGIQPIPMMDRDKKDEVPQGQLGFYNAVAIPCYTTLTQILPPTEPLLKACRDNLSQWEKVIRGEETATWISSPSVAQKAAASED
- test_protocol: In vitro assay PDE10A, human clone (SPA, 3H-cAMP hydrolysis)
- Format: biochemical
- run_parameters: human clone (h), default; read-out: hPDE10A2 Emax
So I've got a bunch of molecules here, and I need their Emax values.
Just the number in %, nothing appended.

Qu. Which Emax reading was recorded for the molecule C[C@H]1CCN(C(=O)c2ccc3ncsc3c2)C[C@]1(F)c1cc(C(F)F)nc2ncnn12 [Compound 34] ?
Ans. 28

Qu. Which Emax reading was recorded for the molecule C[C@@H]1CCN(C(=O)c2cccc3c2ncn3C)C[C@H]1c1cc(C(F)F)nc2ncnn12 [Compound 178] ?
Ans. 92

Qu. Which Emax reading was recorded for the molecule Cc1cc(C(=O)N2CC[C@@H](C)[C@H](c3cc(C(F)F)nc4ncnn34)C2)c(C)cn1 [Compound 32] ?
Ans. 81

Qu. Which Emax reading was recorded for the molecule COc1cc(C(=O)N2CC[C@@H](C)[C@H](c3cc(C(F)F)nc4ncnn34)C2)ccc1F [Compound 195] ?
Ans. 93

Qu. Which Emax reading was recorded for the molecule C[C@@H]1CCN(C(=O)c2cc3ccccc3o2)C[C@H]1c1cc(C(F)F)nc2ncnn12 [Compound 69] ?
Ans. 100

Qu. Which Emax reading was recorded for the molecule C[C@@H]1CCN(C(=O)c2cccc(C(C)(C)C#N)c2)C[C@H]1c1cc(C(F)F)nc2ncnn12 [Compound 175] ?
Ans. 98

Qu. Which Emax reading was recorded for the molecule Cc1c(C(=O)N2CC[C@@H](C)[C@H](c3cc(C(F)F)nc4ncnn34)C2)ccc2c1OCO2 [Compound 145] ?
Ans. 93

Qu. Which Emax reading was recorded for the molecule Cc1nn(C)cc1C(=O)N1CCC[C@](C)(c2cc(C(F)F)nc3ncnn23)C1 (single isomer, unassigned) [Compound 207] ?
Ans. -5

Qu. Which Emax reading was recorded for the molecule Cc1cccnc1C(=O)N1CC[C@@H](C)[C@H](c2cc(C(F)F)nc3ncnn23)C1 [Compound 229] ?
Ans. 33

Qu. Which Emax reading was recorded for the molecule C[C@@H]1CCN(C(=O)c2cc(Cl)ncc2Cl)C[C@H]1c1cc(C(F)F)nc2ncnn12 [Compound 43] ?
Ans. 88

Qu. Which Emax reading was recorded for the molecule O=C(c1ccc2ncsc2c1)N1[C@H]2CC[C@H](c3cc(C(F)F)nc4ncnn34)[C@@H]1CC2 [Compound 25a] ?
Ans. 94

Qu. Which Emax reading was recorded for the molecule C[C@@H]1CCN(C(=O)c2ccc3occc3c2)C[C@H]1c1cc(C(F)F)nc2ncnn12 [Compound 97] ?
Ans. 101

Qu. Which Emax reading was recorded for the molecule C[C@@H]1CCN(C(=O)c2ccnnc2)C[C@H]1c1cc(C(F)F)nc2ncnn12 [Compound 248] ?
Ans. 49

Qu. Which Emax reading was recorded for the molecule C[C@@H]1CCN(C(=O)c2ccc(F)c(O)c2)C[C@H]1c1cc(C(F)F)nc2ncnn12 [Compound 186] ?
Ans. 95

Qu. Which Emax reading was recorded for the molecule C[C@@H]1CCN(C(=O)c2ccc3nc(N)sc3c2)C[C@H]1c1cc(C(F)F)nc2ncnn12 [Compound 88] ?
Ans. 99

====

So I've got a bunch of compounds here, and I need their IC50 values.
- target_desc: Human recombinant PDE2A (hPDE2A) (Homo sapiens, UniProt O00408)
- Construct: His tag (inferred from metal chelate purification); made in house; host or cells: Sf9 insect cells (baculovirus)
- Sequence (O00408 whole entry): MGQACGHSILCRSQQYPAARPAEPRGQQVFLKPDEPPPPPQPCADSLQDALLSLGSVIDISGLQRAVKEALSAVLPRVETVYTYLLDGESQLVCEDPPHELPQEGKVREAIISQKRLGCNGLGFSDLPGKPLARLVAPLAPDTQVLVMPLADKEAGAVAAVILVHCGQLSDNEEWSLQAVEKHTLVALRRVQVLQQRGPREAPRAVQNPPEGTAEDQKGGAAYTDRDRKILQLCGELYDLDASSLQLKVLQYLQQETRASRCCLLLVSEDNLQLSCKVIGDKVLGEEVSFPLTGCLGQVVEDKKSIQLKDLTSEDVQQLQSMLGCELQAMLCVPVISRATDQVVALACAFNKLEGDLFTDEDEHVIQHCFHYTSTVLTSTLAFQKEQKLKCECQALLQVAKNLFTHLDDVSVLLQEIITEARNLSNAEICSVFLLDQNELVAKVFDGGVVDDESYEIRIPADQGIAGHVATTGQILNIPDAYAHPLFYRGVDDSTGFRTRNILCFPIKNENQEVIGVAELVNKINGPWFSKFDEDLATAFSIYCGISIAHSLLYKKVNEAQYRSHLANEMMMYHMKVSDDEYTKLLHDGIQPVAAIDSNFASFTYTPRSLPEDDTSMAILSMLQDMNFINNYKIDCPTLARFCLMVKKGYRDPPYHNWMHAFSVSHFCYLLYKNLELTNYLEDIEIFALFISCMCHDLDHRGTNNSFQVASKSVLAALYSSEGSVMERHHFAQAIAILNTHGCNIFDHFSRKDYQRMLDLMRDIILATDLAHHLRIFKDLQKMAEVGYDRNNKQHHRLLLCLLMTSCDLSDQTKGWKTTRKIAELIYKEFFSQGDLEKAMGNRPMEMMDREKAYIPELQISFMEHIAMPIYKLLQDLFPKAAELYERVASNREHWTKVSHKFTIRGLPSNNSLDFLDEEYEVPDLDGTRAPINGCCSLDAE
- test_protocol: In vitro assay PDE2A (SPA, 3H-cGMP hydrolysis)
- Assay type: biochemical
- run_parameters: human recombinant PDE2A, 10 μM cGMP substrate; read-out: hPDE2A pIC50 (converted)
Just the number in nM, nothing appended.

Qu. Form field: IC50 recorded for Cc1cc(C(=O)N2CC[C@@H](C)[C@H](c3cc(C(F)F)nc4ncnn34)C2)c(F)c(C)n1 [Compound 70] with Human recombinant PDE2A (hPDE2A) (Homo sapiens, UniProt O00408) (enter value)
Ans. 1.74

Qu. Form field: IC50 recorded for C[C@@H]1CCN(C(=O)c2ccc(Cl)c(Cl)c2)C[C@H]1c1cc(C(F)F)nc2ncnn12 [Compound 111] with Human recombinant PDE2A (hPDE2A) (Homo sapiens, UniProt O00408) (enter value)
Ans. 0.977

Qu. Form field: IC50 recorded for Cc1c(C(=O)N2CC[C@@H](C)[C@H](c3cc(C(F)F)nc4ncnn34)C2)ccnc1Cl [Compound 159] with Human recombinant PDE2A (hPDE2A) (Homo sapiens, UniProt O00408) (enter value)
Ans. 72.4

Qu. Form field: IC50 recorded for C[C@@H]1CCN(C(=O)c2ccncc2F)C[C@H]1c1cc(C(F)F)nc2ncnn12 [Compound 155] with Human recombinant PDE2A (hPDE2A) (Homo sapiens, UniProt O00408) (enter value)
Ans. 53.7

====

- target_desc: Human recombinant PDE2A (hPDE2A) (Homo sapiens)
- Construct: His tag (inferred from metal chelate purification); made in house; host or cells: Sf9 insect cells (baculovirus)
- test_protocol: In vitro assay PDE2A (SPA, 3H-cGMP hydrolysis)
- Format: biochemical
- run_parameters: human recombinant PDE2A, 10 μM cGMP substrate; read-out: hPDE2A pIC50 (converted)
measured_property: log10(IC50) (log10 of the value in nM)
Heads up, the numbers here are log10 of IC50 in nM units.

Qu. Which log10(IC50) reading was recorded for the compound C[C@@H]1CCN(C(=O)c2cccc(OC(F)(F)F)c2F)C[C@H]1c1cc(C(F)F)nc2ncnn12 ?
Ans. 1.32

Qu. Which log10(IC50) reading was recorded for the compound Cc1cc(C(=O)N2CC[C@@H](C)[C@H](c3cc(C(F)F)nc4ncnn34)C2)c(F)cn1 ?
Ans. 0.50

Qu. Which log10(IC50) reading was recorded for the compound C[C@@H]1CCN(C(=O)c2cccc3ocnc23)C[C@H]1c1cc(C(F)F)nc2ncnn12 ?
Ans. 1.42

Qu. Which log10(IC50) reading was recorded for the compound COc1ccc2nc(C(=O)N3CC[C@@H](C)[C@H](c4cc(C(F)F)nc5ncnn45)C3)sc2c1 ?
Ans. 1.07

Qu. Which log10(IC50) reading was recorded for the compound Cc1ccc(C(=O)N2CC[C@@H](C)[C@H](c3cc(C(F)F)nc4ncnn34)C2)c(C)n1 ?
Ans. 1.52

Qu. Which log10(IC50) reading was recorded for the compound Cc1nc2cccc(C(=O)N3CC[C@@H](C)[C@H](c4cc(C(F)F)nc5ncnn45)C3)c2o1 ?
Ans. 0.49

Qu. Which log10(IC50) reading was recorded for the compound Cc1cc(C(=O)N2CC[C@H](C)[C@@](F)(c3cc(C(F)F)nc4ncnn34)C2)cc(C2CC2)n1 [Compound 24a] ?
Ans. 3.41

====

- target_desc: Human recombinant PDE2A (hPDE2A) (Homo sapiens, UniProt O00408)
- Construct: His tag (inferred from metal chelate purification); made in house; host or cells: Sf9 insect cells (baculovirus)
- test_protocol: In vitro assay PDE2A (SPA, 3H-cGMP hydrolysis)
- Type: biochemical
- run_parameters: human recombinant PDE2A; read-out: hPDE2A Emax
So I've got a bunch of compounds here, and I need their Emax values.
Just the number in %, nothing appended.

Qu. Which Emax reading was recorded for the compound C[C@@H]1CCN(C(=O)c2cccc3ocnc23)C[C@H]1c1cc(C(F)F)nc2ncnn12 ?
Ans. 99

Qu. Which Emax reading was recorded for the compound Cc1cc([C@@H]2CC[C@@H]3CC[C@H]2N3C(=O)c2ccc3ncsc3c2)n2ncnc2n1 ?
Ans. 93

Qu. Which Emax reading was recorded for the compound C[C@@H]1CCN(C(=O)c2ccc(F)c(C(F)(F)F)c2)C[C@H]1c1cc(C(F)F)nc2ncnn12 ?
Ans. 99

Qu. Which Emax reading was recorded for the compound Cc1nccc(C(=O)N2CC[C@@H](C)[C@H](c3cc(C(F)F)nc4ncnn34)C2)c1F ?
Ans. 99

Qu. Which Emax reading was recorded for the compound Cc1cc([C@@H]2CN(C(=O)c3cnc4ccc(C(F)(F)F)cn34)CC[C@H]2C)n2ncnc2n1 ?
Ans. 101

Qu. Which Emax reading was recorded for the compound C[C@@H]1CCN(C(=O)c2ccc(C(F)(F)F)nc2)C[C@H]1c1cc(C(F)F)nc2ncnn12 ?
Ans. 97

Qu. Which Emax reading was recorded for the compound C[C@@H]1CCN(C(=O)c2ccc(Cl)cn2)C[C@H]1c1cc(C(F)F)nc2ncnn12 ?
Ans. 100

Qu. Which Emax reading was recorded for the compound C[C@@H]1CCN(C(=O)c2cn(C)cn2)C[C@H]1c1cc(C(F)F)nc2ncnn12 ?
Ans. 99

Qu. Which Emax reading was recorded for the compound Cc1cc(C(=O)N2CC[C@@H](C)[C@@](F)(c3cc(C(F)F)nc4ncnn34)C2)cc(C)n1 ?
Ans. 59

Qu. Which Emax reading was recorded for the compound Cc1coc2ccc(C(=O)N3CC[C@@H](C)[C@H](c4cc(C(F)F)nc5ncnn45)C3)cc12 ?
Ans. 100

Qu. Which Emax reading was recorded for the compound C[C@@H]1CCN(C(=O)c2ccno2)C[C@H]1c1cc(C(F)F)nc2ncnn12 ?
Ans. 99

Qu. Which Emax reading was recorded for the compound Cc1nc2cc(C(=O)N3CC[C@@H](C)[C@H](c4cc(C(F)F)nc5ncnn45)C3)ccc2o1 ?
Ans. 99

Qu. Which Emax reading was recorded for the compound C[C@@H]1CCN(C(=O)c2ccc(Cl)c(C(F)(F)F)c2)C[C@H]1c1cc(C(F)F)nc2ncnn12 ?
Ans. 98

Qu. Which Emax reading was recorded for the compound C[C@@H]1CCN(C(=O)c2ccc(OC(F)F)c(F)c2)C[C@H]1c1cc(C(F)F)nc2ncnn12 ?
Ans. 99

Qu. Which Emax reading was recorded for the compound C[C@@H]1CCN(C(=O)c2ncc(C#N)cc2Cl)C[C@H]1c1cc(C(F)F)nc2ncnn12 ?
Ans. 94

Qu. Which Emax reading was recorded for the compound COc1cc(C(=O)N2CC[C@@H](C)[C@H](c3cc(C(F)F)nc4ncnn34)C2)c(C)cn1 ?
Ans. 100

Qu. Which Emax reading was recorded for the compound CC1(c2cc(C(F)F)nc3ncnn23)CCCN(C(=O)c2ccc3occc3c2)C1 (stereo not drawn) ?
Ans. 61

Qu. Which Emax reading was recorded for the compound C[C@@H]1CCN(C(=O)c2cc(Cl)cnc2C(F)(F)F)C[C@H]1c1cc(C(F)F)nc2ncnn12 ?
Ans. 98

Qu. Which Emax reading was recorded for the compound C[C@@H]1CCN(C(=O)c2cc3ccc(C(F)(F)F)cc3[nH]2)C[C@H]1c1cc(C(F)F)nc2ncnn12 ?
Ans. 101

Qu. Which Emax reading was recorded for the compound Cc1cc(C)cc(C(=O)N2CCC[C@](C)(c3cc(C(F)F)nc4ncnn34)C2)c1 (single isomer, unassigned) ?
Ans. 39

Qu. Which Emax reading was recorded for the compound Cc1cc(C(=O)N2C3CCC2[C@@H](c2cc(C(F)F)nc4ncnn24)CC3)cc(C2CC2)n1 (stereo partly drawn) ?
Ans. 101

Qu. Which Emax reading was recorded for the compound Cc1nocc1C(=O)N1CC[C@@H](C)[C@H](c2cc(C(F)F)nc3ncnn23)C1 ?
Ans. 100

Qu. Which Emax reading was recorded for the compound C[C@@H]1CCN(C(=O)c2cc(C#N)ccn2)C[C@H]1c1cc(C(F)F)nc2ncnn12 ?
Ans. 98

Qu. Which Emax reading was recorded for the compound COc1c(C)cc(C(=O)N2CC[C@@H](C)[C@](F)(c3cc(C(F)F)nc4ncnn34)C2)cc1C ?
Ans. 101

Qu. Which Emax reading was recorded for the compound Cc1ccc2cc(C(=O)N3CC[C@@H](C)[C@H](c4cc(C(F)F)nc5ncnn45)C3)c(C)nc2c1 ?
Ans. 100

Qu. Which Emax reading was recorded for the compound C[C@@H]1CCN(C(=O)c2cnn(C)c2)C[C@H]1c1cc(C(F)F)nc2ncnn12 ?
Ans. 99

Qu. Which Emax reading was recorded for the compound Cc1cc(C(=O)N2CC[C@@H](C)[C@H](c3cc(C(F)F)nc4ncnn34)C2)no1 ?
Ans. 99

Qu. Which Emax reading was recorded for the compound C[C@@H]1CCN(C(=O)c2ccc(Cl)c(Cl)c2)C[C@H]1c1cc(C(F)F)nc2ncnn12 ?
Ans. 100

Qu. Which Emax reading was recorded for the compound COc1cc(C(=O)N2CC[C@@H](C)[C@H](c3cc(C(F)F)nc4ncnn34)C2)cc(C)n1 ?
Ans. 101

Qu. Which Emax reading was recorded for the compound COc1ccc(C(=O)N2CC[C@@H](C)[C@H](c3cc(C(F)F)nc4ncnn34)C2)cc1OC(F)F ?
Ans. 100
